// reported melting point per item

Illustrative cases are given below, each with its answer.
* CC(=O)OC[C@H]1O[C@@H](n2cc(/C(I)=C\I)c(=O)[nH]c2=O)C[C@@H]1OC(C)=O | 76 to 78 °C
* CC(=O)OC[C@H]1O[C@@H](n2cc(/C(Br)=C\I)c(=O)[nH]c2=O)C[C@@H]1OC(C)=O | 82 to 84 °C
* O=c1[nH]c(=O)n([C@H]2C[C@H](O)[C@@H](CO)O2)cc1C#CI [Compound 12a, 5-(2-Iodoethynyl)-2′-deoxyuridine] | 135 to 137 °C
* CC(=O)OC[C@H]1O[C@@H](n2cc(/C(Br)=C\I)c(=O)[nH]c2=O)[C@H](OC(C)=O)[C@@H]1OC(C)=O | 86 to 88 °C
* CC(=O)OC[C@H]1O[C@@H](n2cc(C(Br)=CBr)c(=O)[nH]c2=O)C[C@@H]1OC(C)=O | 79 to 81 °C

Query :: Any idea what its melting point is? The molecule is CC(=O)OC[C@H]1O[C@@H](n2cc(/C(Br)=C\Br)c(=O)[nH]c2=O)[C@H](OC(C)=O)[C@@H]1OC(C)=O
Result :: 83 to 85 °C

Query :: Also check CC(=O)OC[C@@H]1C[C@@H](OC(C)=O)[C@H](n2cc(C(Br)=CBr)c(=O)[nH]c2=O)O1
Result :: 78 to 80 °C

Query :: Also check CC(=O)OC[C@H]1O[C@@H](n2cc(C#CI)c(=O)[nH]c2=O)[C@H](OC(C)=O)[C@@H]1OC(C)=O
Result :: 100 to 102 °C

Query :: Also check CC(=O)OC[C@H]1O[C@@H](n2cc(/C(I)=C\I)c(=O)[nH]c2=O)[C@H](OC(C)=O)[C@@H]1OC(C)=O
Result :: 83 to 85 °C

Query :: Also check CC(=O)OC[C@H]1O[C@@H](n2cc(C#CI)c(=O)[nH]c2=O)C[C@@H]1OC(C)=O
Result :: 175 to 177 °C (dec.)

###

# Test system: subgenomic HCV replicon BM4-5 in Huh7 cells
# assay summary: Antiviral assay on HCV subgenomic replicon, Northern blot of (+)-strand HCV RNA
# Assay type: cell-based, Hepatitis C Virus
# condition label: Hepatitis C virus, 72 h, read-out: IC50, anti-HCV activity, (+)-RNA
measured quantity: IC50 (µM)
State the answer as a number, implicitly in µM.

Query :: Any idea what its IC50 is? The compound is NC(=O)c1ncn([C@@H]2O[C@H](CO)[C@@H](O)[C@H]2O)n1 [Ribavirin, reference compound]
Result :: 170

###

// reported melting point per item

Illustrative cases are given below, each with its answer.
- O=c1[nH]c(=O)n([C@H]2C[C@H](O)[C@@H](CO)O2)cc1/C(I)=C\I [Compound 14a, (E)-5-(1,2-Diiodovinyl)-2′-deoxyuridine]: 103 to 105 °C
- O=c1[nH]c(=O)n([C@@H]2O[C@H](CO)[C@@H](O)[C@H]2O)cc1/C(I)=C\I [Compound 14b, (E)-5-(1,2-Diiodovinyl)-uridine]: 107 to 109 °C

Switching to the query record.
Query :: Any idea what its melting point is? The molecule is CC(=O)OC[C@@H]1C[C@@H](OC(C)=O)[C@H](n2cc(/C(I)=C\I)c(=O)[nH]c2=O)O1
Result :: 75 to 77 °C
